- System: human C3bBb (Bb from FB D279G/K350N/M458I) (human)
- Sequence (P01024 23-1663, chain 1 of 2): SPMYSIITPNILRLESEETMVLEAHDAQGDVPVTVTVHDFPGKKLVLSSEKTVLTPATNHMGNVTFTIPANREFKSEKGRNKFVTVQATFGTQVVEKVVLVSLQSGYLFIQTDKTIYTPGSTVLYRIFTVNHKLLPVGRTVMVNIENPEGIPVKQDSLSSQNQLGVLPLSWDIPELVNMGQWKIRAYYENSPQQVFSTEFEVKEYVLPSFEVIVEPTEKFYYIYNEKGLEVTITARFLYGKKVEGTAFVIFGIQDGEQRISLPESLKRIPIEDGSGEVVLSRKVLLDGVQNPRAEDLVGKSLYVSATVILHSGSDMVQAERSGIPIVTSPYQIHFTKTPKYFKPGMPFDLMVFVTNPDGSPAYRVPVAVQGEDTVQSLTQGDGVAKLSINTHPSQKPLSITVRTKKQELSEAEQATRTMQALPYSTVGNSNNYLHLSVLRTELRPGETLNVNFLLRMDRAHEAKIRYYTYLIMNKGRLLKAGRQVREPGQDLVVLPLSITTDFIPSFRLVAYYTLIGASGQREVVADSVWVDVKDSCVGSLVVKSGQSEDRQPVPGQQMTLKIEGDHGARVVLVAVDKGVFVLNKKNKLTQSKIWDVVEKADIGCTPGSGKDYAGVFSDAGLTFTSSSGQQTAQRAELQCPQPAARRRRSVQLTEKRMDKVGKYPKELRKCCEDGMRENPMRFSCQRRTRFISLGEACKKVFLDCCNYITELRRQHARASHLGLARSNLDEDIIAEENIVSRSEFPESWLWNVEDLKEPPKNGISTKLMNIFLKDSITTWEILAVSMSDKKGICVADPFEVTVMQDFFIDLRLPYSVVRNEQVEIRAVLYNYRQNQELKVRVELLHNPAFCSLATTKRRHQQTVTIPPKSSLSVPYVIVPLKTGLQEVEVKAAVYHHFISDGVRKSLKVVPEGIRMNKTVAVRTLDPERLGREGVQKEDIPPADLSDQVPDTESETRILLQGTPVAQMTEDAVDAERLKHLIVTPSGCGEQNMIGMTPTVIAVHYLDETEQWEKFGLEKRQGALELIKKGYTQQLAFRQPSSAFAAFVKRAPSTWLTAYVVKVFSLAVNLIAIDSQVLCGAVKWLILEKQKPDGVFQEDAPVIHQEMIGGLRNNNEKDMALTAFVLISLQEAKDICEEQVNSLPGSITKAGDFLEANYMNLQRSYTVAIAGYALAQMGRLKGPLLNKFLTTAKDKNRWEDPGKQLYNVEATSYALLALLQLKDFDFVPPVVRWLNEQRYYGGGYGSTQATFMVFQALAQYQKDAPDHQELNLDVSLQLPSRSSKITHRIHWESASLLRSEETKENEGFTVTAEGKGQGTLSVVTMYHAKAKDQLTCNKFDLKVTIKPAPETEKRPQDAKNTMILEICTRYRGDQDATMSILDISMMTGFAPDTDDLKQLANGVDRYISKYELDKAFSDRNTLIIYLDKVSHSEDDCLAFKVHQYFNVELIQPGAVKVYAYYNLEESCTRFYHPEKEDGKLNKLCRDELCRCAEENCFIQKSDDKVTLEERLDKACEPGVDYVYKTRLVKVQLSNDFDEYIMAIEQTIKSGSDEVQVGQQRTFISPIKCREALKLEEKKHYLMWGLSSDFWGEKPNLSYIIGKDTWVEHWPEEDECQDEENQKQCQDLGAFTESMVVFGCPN
- Sequence (P00751 260-764 D279G/K350N/M458I, chain 2 of 2, further chain): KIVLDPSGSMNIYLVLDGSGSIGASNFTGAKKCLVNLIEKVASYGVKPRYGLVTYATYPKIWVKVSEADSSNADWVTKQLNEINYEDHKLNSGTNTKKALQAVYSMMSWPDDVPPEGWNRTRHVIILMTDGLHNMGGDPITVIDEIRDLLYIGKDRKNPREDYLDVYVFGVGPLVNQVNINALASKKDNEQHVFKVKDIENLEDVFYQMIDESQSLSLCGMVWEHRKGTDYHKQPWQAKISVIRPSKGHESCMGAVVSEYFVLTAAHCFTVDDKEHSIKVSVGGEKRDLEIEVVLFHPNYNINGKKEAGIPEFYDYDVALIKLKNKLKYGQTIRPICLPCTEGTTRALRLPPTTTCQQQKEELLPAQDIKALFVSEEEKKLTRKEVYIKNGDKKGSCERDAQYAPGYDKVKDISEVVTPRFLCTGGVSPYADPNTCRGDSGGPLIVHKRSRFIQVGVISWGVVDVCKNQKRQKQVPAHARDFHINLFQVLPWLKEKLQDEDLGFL
- Measurement Protocol: SPR, 25C
Parameter: pKd
To interpret pKd, take it as minus log10 of a concentration measured in moles per litre.

Input: Please report the recorded pKd for P1AH1199 (antibody, V domains shown) VH: QVQLVESGGGLVQPGGSLRLSCAASGFKYDVYAMSWVRQAPGKGLEWVGEISPRGDSKYYNTKFIDRFTISRDNEKNTLYLQMNSLRAEDTAVYYCARDWEYFDNWGQGTLVTVSS VL: AIQMTQSPSSLSASVGDRVTITCQASYWLSNYLAWYQQKPGKAPKLLIFDGDIPWEIPSRFSGSGSHEEYTLTISSLQPEDFATYYCQQYRDTPYTFGQGTKLEIK .
Output: 10.52

Measured values drawn from patent US20260308278 for this set.
